# experimental.target: Serine/threonine-protein kinase PAK 4 (Homo sapiens)
# Sequence (O96013 whole entry): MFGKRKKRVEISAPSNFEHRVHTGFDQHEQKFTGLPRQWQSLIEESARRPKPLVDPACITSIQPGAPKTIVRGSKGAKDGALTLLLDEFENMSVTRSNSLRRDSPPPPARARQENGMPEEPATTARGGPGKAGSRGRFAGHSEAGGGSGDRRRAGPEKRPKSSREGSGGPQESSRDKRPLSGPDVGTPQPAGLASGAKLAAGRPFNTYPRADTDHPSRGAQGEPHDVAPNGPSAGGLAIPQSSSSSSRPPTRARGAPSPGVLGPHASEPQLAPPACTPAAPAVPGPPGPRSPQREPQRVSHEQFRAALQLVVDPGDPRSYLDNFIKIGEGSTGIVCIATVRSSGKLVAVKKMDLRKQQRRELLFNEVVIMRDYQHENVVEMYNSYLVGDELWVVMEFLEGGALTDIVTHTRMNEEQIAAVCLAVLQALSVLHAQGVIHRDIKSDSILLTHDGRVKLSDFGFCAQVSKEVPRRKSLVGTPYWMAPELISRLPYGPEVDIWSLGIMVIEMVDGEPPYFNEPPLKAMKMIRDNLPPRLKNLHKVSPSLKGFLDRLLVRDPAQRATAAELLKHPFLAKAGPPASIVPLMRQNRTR
# assay.explanation: Inhibition of PAK4 (unknown origin) assessed as inhibition constant
pKi: −log10 of the molar value.
parameter.measured: pKi

[[record]]
chemical_smiles = "N[C@@H]1[C@H]2CN(c3nc(Nc4cc(C5CC5)[nH]n4)c4sccc4n3)C[C@@H]12"
parameter_measured = "pKi"
recorded_result = 8.40


---

Recorded measurements of Papp A→B, one per entry
# assay.explanation: Apparent permeability across apical to basolateral side in human Caco-2 cells
# Assay type: ADME, cell-based
parameter.measured: Papp A→B

[[record]]
chemical_smiles = "CN(C)C[C@@H](NC(=O)N1Cc2c(NC(=O)c3ccccc3)n[nH]c2C1(C)C)c1ccccc1"
parameter_measured = "Papp A→B"
recorded_result = "0.1 ×10⁻⁶ cm/s"

[[record]]
chemical_smiles = "CN(C)C[C@@H](OC(=O)N1Cc2c(NC(=O)C(C)(C)C)n[nH]c2C1(C)C)c1ccccc1"
parameter_measured = "Papp A→B"
recorded_result = "1.7 ×10⁻⁶ cm/s"

